Listing: % change of MS signal compared to control sample of selected compounds
tested on: PCTAIRE2, PCTAIRE3; experiment: KINATIV assay; type: cell-based; conditions: 1 μM, 90 minutes, BCWM.1 cells
// return numeric value only (unit: %, not printed)

See these solved cases before continuing.
Fill: % change of MS signal compared to control sample (PCTAIRE2, PCTAIRE3) for this compound C=CC(=O)N1CCC(CNc2nccc(Nc3ncc(C(=O)Nc4c(C)cccc4C)s3)n2)C1 (racemic)
28.8

Fill: % change of MS signal compared to control sample (PCTAIRE2, PCTAIRE3) for this compound C=CC(=O)N1CCCCC(Nc2nccc(Nc3ncc(C(=O)Nc4c(C)cccc4C)s3)n2)C1 (stereo not shown)
27.0

Fill: % change of MS signal compared to control sample (PCTAIRE2, PCTAIRE3) for this compound C=CC(=O)N1CC[C@@H](Nc2nccc(Nc3ncc(C(=O)Nc4c(C)cccc4C)s3)n2)C1
27.9

New cases:
Fill: % change of MS signal compared to control sample (PCTAIRE2, PCTAIRE3) for this compound C=CC(=O)N1CCC(Cn2ccc(Nc3ncc(C(=O)Nc4c(C)cccc4Cl)s3)n2)C1 (stereo not shown)
31.8
